B1: Caulobacter ParB omega fusion; a variant is named by its letters at X, in order, B8GW30 (parent)
chain: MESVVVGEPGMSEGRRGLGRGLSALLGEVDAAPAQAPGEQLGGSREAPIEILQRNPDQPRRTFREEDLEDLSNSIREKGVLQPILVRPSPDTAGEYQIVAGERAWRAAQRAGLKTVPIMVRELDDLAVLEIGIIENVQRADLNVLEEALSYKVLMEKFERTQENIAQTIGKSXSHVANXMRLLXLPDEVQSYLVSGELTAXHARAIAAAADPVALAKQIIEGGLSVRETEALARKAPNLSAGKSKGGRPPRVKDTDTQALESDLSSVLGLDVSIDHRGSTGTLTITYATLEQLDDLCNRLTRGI

variants of: B1; test: one-hybrid fitness for binding parS DNA (scaled: cognate 1, non-cognate 0); higher = stronger binding; conditions: with parS DNA site
The full ranking holds about 81,000 sequences; the median of “one-hybrid fitness for binding parS DNA” is about -0.17, and the highest 2% start at about 0.51. For the sample, the highest values were picked, then their nearest neighbours and some sequences at random.
observable: one-hybrid fitness for binding parS DNA

Previously resolved entries follow.
>>> result("TWCR")
"≤ 0.2"
>>> result("RICD")
"≤ 0.2"
>>> result("RWHH")
"≤ 0.2"
>>> result("QNAG")
"≤ 0.2"
>>> result("LAWM")
"≤ 0.2"

The measured one-hybrid fitness for binding parS DNA associated with `RSKH` reads 0.274

The measured one-hybrid fitness for binding parS DNA associated with `RIQT` reads 0.886

The measured one-hybrid fitness for binding parS DNA associated with `LHLI` reads ≤ 0.2

The measured one-hybrid fitness for binding parS DNA associated with `SNGD` reads ≤ 0.2

The measured one-hybrid fitness for binding parS DNA associated with `HDLV` reads ≤ 0.2

The measured one-hybrid fitness for binding parS DNA associated with `RIGK` reads ≤ 0.2

The measured one-hybrid fitness for binding parS DNA associated with `RIWF` reads 0.282

The measured one-hybrid fitness for binding parS DNA associated with `PPPF` reads ≤ 0.2
